assay: binders from COS7 lysate, DM2A8 probe, primary screen, torsin A project, cell lysate, small-molecule microarray, fluorescence 635/667 (AID 1065); settings: higher = more signal, COS7 lysate expressing mutant human TOR1A
composite z-score reference

compound: COC(=O)c1ccc(C(O)C2C=CC3C(=O)N(c4ccccc4)C(=O)C3N2Nc2ccc(C#N)cc2)o1 (centres undefined)
composite z-score: 0.465
//
compound: [N-]=[N+]=NCc1ccccc1C[C@]1(C(=O)O)N=C(c2ccc(OCCCO)cc2)O[C@H]1c1ccccc1
composite z-score: 0.474
//
compound: CCOC(=O)C[C@H]1[C@H](OC(=O)c2ccccc2-c2ccccc2)[C@@H](NC(=O)c2ccc3ccccc3c2)c2cc(OCCCO)ccc2N1C(=O)c1ccc2ccccc2n1
composite z-score: 0.353
//
compound: O=C1O[C@H](c2ccccc2)[C@H](c2ccccc2)N2[C@H]1[C@@H](C(=O)NC[C@H](O)c1ccccc1)[C@]1(C(=O)Nc3ccc(C#CCCO)cc31)[C@H]2c1ccc(O)cc1
composite z-score: -0.543
//
compound: CCOC(=O)C1=CC[C@@H](c2ccccc2Cl)N(S(=O)(=O)c2ccc(C)cc2)C1
composite z-score: -0.507
//
compound: CC(C)N1C(=O)c2ccccc2[C@@H](C(=O)NCCCN(C)C)[C@@H]1c1ccc(CO)cc1
composite z-score: -0.194
//
compound: C=C(CCCC)/C(=C/C[C@H](OC(C)=O)c1ccc(CO)o1)c1cnc2ccccc2c1
composite z-score: 0.773
//
compound: COC(=O)[C@@]1(Cc2ccccc2)[C@H]2c3cc(C(=O)N(C)C)n(Cc4c(-c5ccccc5)noc4C)c3C[C@H]2CN1C(=O)c1ccccc1
composite z-score: -0.287
//
compound: COC(=O)[C@@]1(Cc2ccccc2N=[N+]=[N-])COC(c2ccc(OCCCO)cc2)=N1
composite z-score: 2.03
//
compound: C=CCNC(=O)[C@@H]1[C@H]2C(=O)O[C@H](c3ccccc3)[C@H](c3ccccc3)N2[C@H](c2ccc(O)cc2)[C@@]12C(=O)N(C(=O)OCCOC)c1ccccc12
composite z-score: 1.11
//
compound: [N-]=[N+]=NCc1ccccc1C[C@@]1(C(=O)N2CCOCC2)N=C(c2ccc(OCCCO)cc2)O[C@@H]1c1ccccc1CN=[N+]=[N-]
composite z-score: 0.232
//
compound: COCCOC(=O)N1C(=O)[C@@]2(c3cc(C#CCNC(N)=O)ccc31)[C@H](C(=O)N1CCN(c3ncccn3)CC1)[C@H]1C(=O)O[C@H](c3ccccc3)[C@H](c3ccccc3)N1[C@@H]2c1ccccc1OCCO
composite z-score: 0.242
//
compound: Cc1ccc(S[C@]2(C(=O)NCCN3CCOCC3)CC(=O)N(Cc3cc(C(F)(F)F)cc(C(F)(F)F)c3)[C@@H]2c2ccc(CO)cc2I)cc1
composite z-score: -0.542
//
compound: CN(C)C(=O)[C@]1(CCC(=O)OC(C)(C)C)N=C(c2ccc(OCCCO)cc2)O[C@@H]1c1ccccc1N=[N+]=[N-]
composite z-score: 1.78

###

assay: small-molecule microarray binders of probe aLefty2, primary screen, biochemical, biotinylated probe, 635/667 nm fluorescence (AID 1094); conditions: higher = more signal;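 note: score merges spot fluorescence near 667 nm with spot signal-to-noise ratio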
Assign yes (1) to entries whose composite z-score meets or exceeds -0.1; assign no (0) to the rest.

compound: Cc1ccc(S[C@]2(C(=O)NCC(C)C)CC(=O)N(Cc3ccccc3Cl)[C@@H]2c2ccc(CO)cc2)cc1
category_label: yes (1)
//
compound: C=CCOC(=O)[C@H]1[C@@H]2C(=O)O[C@@H](c3ccccc3)[C@@H](c3ccccc3)N2[C@@H](c2ccc(OCCOC(=O)[C@@H]3C[C@@H]4C(=O)NCC(=O)N4[C@@H]3c3ccc(O)cc3)cc2)[C@]12C(=O)Nc1ccccc12
category_label: no (0)
//
compound: CCCCC=C[C@@H](NC(=O)c1ccco1)c1ccccc1
category_label: yes (1)
//
compound: COc1cc(CO)ccc1OC(C)=O
category_label: no (0)
//
compound: CCOC(=O)C[C@H]1[C@H](OC(=O)c2ccccc2-c2ccccc2)[C@@H](NC(=O)Cc2ccc(OC)cc2)c2cc(OCCCO)ccc2N1C(=O)c1ccccc1
category_label: no (0)
//
compound: COCCOC(=O)N1C(=O)[C@@]2(c3cc(C#CCNC(N)=O)ccc31)[C@H](c1ccc(OCCO)cc1)N1[C@H](c3ccccc3)[C@H](c3ccccc3)OC(=O)[C@H]1[C@@H]2C(=O)N1CCc2cc(OC)c(OC)cc2C1
category_label: yes (1)
//
compound: CC(C)C[C@@H]1NC(=O)[C@@H]2C[C@H](C(=O)NCCCCCC[N+](C)(C)C)[C@H](c3ccc(O)cc3)N2C1=O
category_label: yes (1)
//
compound: O=C1OCCC/C=C\[C@H]2OC34C=CCN(Cn5nnc6ccccc65)C(=O)[C@H]3N(CCCCCO)C(=O)[C@@H]4C12 (stereo not given in full)
category_label: no (0)
//
compound: COC(=O)[C@@]1(Cc2ccc(F)cc2)[C@H]2c3cc(C(=O)N4CCCC4)n(Cc4cccc5ccccc45)c3C[C@H]2CN1C(=O)c1ccccc1
category_label: yes (1)
//
compound: COC(=O)C[C@@H]1C[C@H](C)[C@]2(O1)C(=O)N(Cc1ccccc1)c1ccc(NC(C)=O)cc12
category_label: no (0)
//
compound: CCC[C@@H]1C=C(C(=O)O)[C@H](c2ccc(C)cc2)N1S(=O)(=O)c1ccc(C)cc1
category_label: yes (1)
//
compound: CCOC(=O)C1=CCC(c2ccc(C#N)cc2)N(S(=O)(=O)c2ccc(C)cc2)C1 (stereo not given)
category_label: yes (1)
//
compound: CC(C)C[C@@H]1NC(=O)[C@H]2C[C@@H](C(=O)NCCCCCCNC(=O)CS)[C@@H](c3cccc(OCCO)c3)N2C1=O
category_label: no (0)
//
compound: Cc1ccc(S[C@]2(C(=O)NCc3ccccc3)CC(=O)N(Cc3ccccc3Cl)[C@@H]2c2ccc(CO)cc2I)cc1
category_label: yes (1)

These measurements were taken from PubChem BioAssay.
